- procedure_text: yeast display, Sf9 membrane polyspecificity reagent, FACS + sequencing; frameworks hold sequencing errors

seq: QDQLVESGGGLVQAGGSLRLSCAASGSTMRWYAMGWYRQAHGKERELVARISWTTGSTYYADSVKGRFTISRDNAKNTVYLQMNSLKPEDTAVYYCAVASGQSFYWGQGTQVTVSS
polyreactivity (PSR sort gate): high polyreactivity
--
seq: QVQLVESGGGLVQAGGSLRLSCAASGRIFLPYAMGWYRHAPGKERELVAAISRTGDRTYYADSVKGRFTISRDNAKNTVYLHMNSLKPEDTAVYYCNTSLPPTVIRYHLRYPRYDHWGQGTQVTVSS
polyreactivity (PSR sort gate): low polyreactivity
--
seq: QVQLVESGGGLVQAGGSLRLSCAASGRIFFSYAMGWYRQAPGKERELVAAISRSGGRTYYADSVKGRFTISRDNAKNTVYLQMNSLKPEDTAVYYCAASSISSLYYDYWGQGTQVTVSS
polyreactivity (PSR sort gate): high polyreactivity
--
seq: QVQLVESGGGLVQAGGSLRLSCAASGYNFERNAMGWYRPAPGKERELVAAITDDGDDTYYADSVKGRFTISRDNAKNTVYLQMNSLKPEDTAVYYCAKDLYYGDYYYWGQGTQVTVSS
polyreactivity (PSR sort gate): low polyreactivity
--
seq: QVQLVESGGGLVQAGGSLRLICAASGRIFRHYAMGWYRQAPGKEREFVAAISRSGGSTYYADSVKGRFTISRDNAKNTVYLQMHSLKPEDTAVYYCYARHRYTGIRFFQPYDYWGQGTQVTVSS
polyreactivity (PSR sort gate): low polyreactivity
--
seq: QVQLVESVGGIVQAGGSLRLSCAASGITLYWYAMGWYRQAPGKERELVAAISRRGGTTYYADSVKGRFTISRDNAKINVFLQMHSLNPEDTAVYYCAKAPDTQTSWSRQEGTYWGQGTQVTVSS
polyreactivity (PSR sort gate): low polyreactivity
--
seq: QVQLVESGGGLVQAGGSLRLSCAASGSTFRYYAMGWYRHAPGKDRELVAAISGSGGRTYYADSVKGRFTISRDNAKNTVYLQMNSLKPEDTAVYYCNTRGRRTDYDYWGQGTQVTVSS
polyreactivity (PSR sort gate): high polyreactivity
--
seq: QVQLVESGGVLVQAGGSLRLSCAASGIIFRSNVMGWYRQAPGKERELVAAISTGGGRTYYADSVKGRFTISRDNAKNTVYLQMNILKPEDTAVYYCAAETTPYQPDGFDEYYYWGQGTQVTVSS
polyreactivity (PSR sort gate): high polyreactivity
--
seq: QVQLVESVGGLVQAGGSLRLSCSASGSTFTGYAMGWYRQARGNEREFVATITKRGGRTYYADSVKGRFTISRDNAKNTVYLQMNSLKPEDSAVYYCARDQGKLFVPYDYWGKGTQVTVSS
polyreactivity (PSR sort gate): high polyreactivity
--
seq: QVQLVESGGGLVQAGGSLRLSCAASGSTISYYAMGWYRQAPGKERELVAAITWNGGSTYYADSVKGRFTISRDNAKNTVYLQMNSLKPEDTAVYYCAKDTYYYDYDYWGQGTQVTVSS
polyreactivity (PSR sort gate): low polyreactivity
--
seq: QVQLVESGGGLVQAGGSLRLSCAASGSIFEGNARGWYRQAPGKERELVAAISTTGGITYYADAVKGRFTISRANAKNTVDLQKNSLKPEDTAVDYCAADPSQPRNDSSNYDYWGQGTQVTVSS
polyreactivity (PSR sort gate): low polyreactivity
